ASSAY_REMARKS: protein stability index of a GFP-peptide fusion (yeast GPS) (PSI 1-4); higher = more stable; sorted into four equal gates, so the index is relative within each strain
ASSAY_CONDITIONS: san1∆
Each entry falls in a class defined on protein stability index; the bands are Low = under 2, Mid = from 2 up to 3, High = 3 and over

# SEQ, ASSIGNED_LABEL
data = [
    ("SQVVETHKVTDIYSHEY [YMR129W/POM152]", "Mid"),
    ("AFITQLESSITDAGVLA [YJL039C/NUP192]", "Low"),
    ("DQITKMKDRLVEWNDQV [RPN9]", "High"),
    ("WLNFLRGTIPLLERYIG [PRP8]", "Low"),
    ("SGKRKPTKAAQRARDQD [GAL11]", "High"),
    ("MAHFKEYQVIGRRLPTE [RPL20A]", "Low"),
    ("IYLLFQSSGKLKEYLDL [YDL116W/NUP84]", "Mid"),
    ("SDNSVSVRLQVTKILPH [IRR1]", "Mid"),
    ("DYNDVEVNSKKKNKRAL [BRR2]", "Mid"),
    ("KFFHNGMIYNKLFVSKE [FAS2]", "Mid"),
]
